B1: INTS3 (parent)
chain: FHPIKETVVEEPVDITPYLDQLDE

Variants of: B1
Test: protein stability index of a GFP-peptide fusion (GPS, HEK-293T) (PSI 1-6); higher = more stable;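 also: lentivirally expressed fusions sorted by FACS into six bins by GFP to DsRed ratio, PSI derived from sequencing read proportions per bin multiplied by bin number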
Conditions: c terminus: a fixed tail appended
Consider the following variants; for each one, report its protein stability index.

Record summary for P12D : reported protein stability index = 3.52

Value of measured protein stability index for the entry V13W : 2.92

# protein stability index of H2F = 4.86

Entry under test: D20G . Its protein stability index was 2.99

Data point: H2I ; protein stability index = 3.71

The value of protein stability index measured for the variant K5I turned out to be 3.14

What the record says about T7N : protein stability index is 3.55

For this variant ( E11N ), measured protein stability index is 2.98

Notebook: V9K , protein stability index read as 3.3

// protein stability index value for P17V : 3.21

Short answer for D14H : protein stability index was 3.11

Entry under test: T16M . Its protein stability index was 3.73

protein stability index for D14Q is 2.91

Recorded result, E6S , protein stability index: 2.52

# protein stability index (variant: Y18P ) is 3.23

Short answer for P12F : protein stability index was 3.65

Just so you know, measured protein stability index for H2A came out at 4.34

The variant identified as I15D registered its protein stability index at 4.18

The value of protein stability index measured for the variant P12C turned out to be 3.03

So, V8Y ? Its protein stability index was 3.06

The variant identified as L19C registered its protein stability index at 3.21

Quick note, protein stability index for T16V landed at 3.14

Quick note, protein stability index for D23H landed at 2.66

Entry V13D , protein stability index reported as 3.83

Lookup result for V13P ; measured protein stability index: 2.43

Per the records, this variant ( D20W ) has protein stability index equal to 2.14

In plain terms, V13S has a documented protein stability index of 3.67

# protein stability index of T16N = 3.18

Query L19T yields protein stability index of 3.31

The variant listed as E10R shows protein stability index equal to 2.1

Given item L19G , the value recorded as its protein stability index is 3.32

Entry I4L ; protein stability index = 3.85

Per the records, this variant ( P17S ) has protein stability index equal to 3.12

T16Q yielded protein stability index of 3.79

Lab book: protein stability index of D20V noted as 2.11

response.value for H2K (field: protein stability index) = 5.24

get_value(item= I4S , readout=protein stability index) returns 3.87

# protein stability index of E10K = 1.84

# protein stability index of F1V = 5.44

protein stability index reported for this variant P3F : 2.52

Record Y18E . Reported protein stability index: 3.36

// protein stability index value for V8N : 3.59

Noted for D20K : its protein stability index reads 2.78

Summary for this variant, E6P : protein stability index is 2.89

Entry L19E — recorded protein stability index = 4.34

protein stability index measured on T7R = 3.04
